Recorded values, source PubChem BioAssay (NCI).

# Test system: HOP-92 NSCLC
# runDescription: NCI-60 one-dose screen, 48 h
# experimentalSetup: 10 µM unless noted
This is part of a sample that, as a whole, favours compounds with a hit. Of some 83,000 tested, about 20% had one in any assay. Calls of active or inactive are those of the source. The calls were made as follows: active = growth percent below 10; inactive = the rest.
Field 'call' accepts T (active), F (inactive)

Some solved entries appear below for comparison.
compound	measuredOn	qualitativeLabel
COc1ccc(S(=O)(=O)N2CCCCCC2)cc1NC(=O)c1[nH]c(C)c2c1CCCCC2=O	HOP-92 NSCLC	F
COc1ccc(Nc2cc(C)nc(N3CCN(c4ccnc5cc(Cl)ccc45)CC3)n2)cc1	HOP-92 NSCLC	F
Oc1cccc2ccc(N/N=C/c3cc(CN4CCOCC4)c(O)c4ncccc34)nc12	HOP-92 NSCLC	F

Called result for CC(=O)O[C@H]1C(=O)[C@@]2(C)[C@H]([C@H](OC(=O)c3ccccc3)[C@]3(O)C[C@H](OC(=O)[C@H](OC(=O)CCC(=O)OC4CCC(S/N=C(N)/N=C(\N)N(C)C)CC4)[C@@H](NC(=O)c4ccccc4)c4ccccc4)C(C)=C1C3(C)C)[C@]1(OC(C)=O)CO[C@@H]1C[C@@H]2O (some centres undefined)
F

Called result for Cc1ccc2c(C(C[N+](=O)[O-])c3ccccc3F)c(-c3ccccc3)[nH]c2c1 (centres undefined)
F

Called result for CCc1nc(N)nc(N)c1C#CC(C)c1ccc(-c2ccncc2)cc1Cl (centres undefined)
T

Called result for Cc1ccc(C2=NN3C(C2)c2cc(Br)ccc2OC32CCN(Cc3ccccc3)CC2)o1 (centres undefined)
F

Called result for O=c1c2c3c(sc2nc(N/N=C/c2cn(-c4ccccc4)nc2-c2ccc(Cl)cc2)n1Cc1ccccc1)CCCC3
F

Called result for Cn1c(NCCc2ccc(O)c(O)c2)nc2c1c(=O)n(Cc1ccc(Cl)c(Cl)c1)c(=O)n2C
F

Called result for COc1cc2c(cc1-c1c(C)noc1C)ncc1nc(C3CCOCC3)n([C@@H](C)COC(F)F)c12
F

Called result for O=CNc1ccc2c(c1)Cc1cccc(NC=O)c1-2
F

Called result for c1ccc(CCNc2ncnc3[nH]ncc23)cc1
F

Called result for CSc1nc(NCc2ccccc2)c(C#N)c(-c2cccc([N+](=O)[O-])c2)n1
F

Called result for COc1ccc2c(c1)c(-c1nonc1-c1cn(C)c3ccccc13)cn2C
F

Called result for C#CCOc1ccc2ncnc(N3CCN(C(=O)CCl)CC3)c2c1
F

Called result for COCCNc1ccc2c3c(cccc13)C(=O)N(CCN(C)C)C2=O
F

Called result for O=C(COc1cccc(/C=C2\CSc3ccccc3C2=O)c1)Nc1nccs1
T

Called result for CCCOc1cc2ccccc2cc1C(=O)Nc1nc(NC)c2c(ccc3nccc32)[nH]1
T

Called result for O=C1c2ccccc2C(=O)c2c1ccc1[nH]c(-c3cccs3)nc21
F
